# merged literature set: pIC50 with Cytochrome P450 3A4 (Homo sapiens, UniProt P08684)
Remember, pIC50 is on a log scale: it is -log10 of the molar concentration.

Consider the following illustrative entries.
smi=C[C@@H](c1ccc(-c2ccc(C#N)cn2)cc1)N1CC[C@](CC(C)(C)O)(c2ccccc2)OC1=O assayed_system="Cytochrome P450 3A4 (Homo sapiens, UniProt P08684)" value_reported=4.90
smi=CC(C)c1nc(CN(C)C(=O)N[C@H](C(=O)N[C@H](CC[C@H](Cc2ccccc2)NC(=O)CCc2cccs2)Cc2ccccc2)C(C)C)cs1 assayed_system="Cytochrome P450 3A4 (Homo sapiens, UniProt P08684)" value_reported=5.64

INPUT: Identify the measured pIC50 of C[C@H](c1ccc(F)cc1)n1cncc1CN1CCN(S(=O)(=O)c2cnc(N3C[C@@H]4C[C@@H](O)CN4C[C@@H]3C)s2)CC1 for Cytochrome P450 3A4 (Homo sapiens, UniProt P08684).
OUTPUT: 8.72

INPUT: Fill in the recorded pIC50 for this molecule, with Cytochrome P450 3A4 (Homo sapiens, UniProt P08684) as test system: C[C@@H](c1ccc(-c2ncc(C(=O)NC3CC3)s2)cc1)N1CC[C@](CC(C)(C)O)(c2ccccc2)OC1=O
OUTPUT: 4.30

---

What follows is literature data on IC50 for Cytochrome P450 3A4 (Homo sapiens).

Solved cases below.
compound=O=C(Nc1cccc(C(F)(F)F)c1)c1cc(F)cnc1NCc1ccnc2[nH]ccc12 value_reported="> 20 µM"
compound="CCC(=O)NC1CCCc2c(-c3ccc4c(c3)OCC(=O)N4C)cncc21 (single isomer, unassigned)" value_reported="> 50 µM"
compound=CC(C)(O)c1cc(F)c(-c2cnc(C(C)(C)O)c(N)c2)cc1N value_reported="> 50 µM"
compound=CNC(=O)c1cc(COc2nnc(Nc3cccc(C)c3)c3ccsc23)ccn1 value_reported="> 20 µM"
compound=Cc1cc(C(=O)Nc2ccc(F)c([C@]3(C)C=CSC(N)=N3)c2)n(C)c1 value_reported="> 20 µM"
compound="COCc1ccccc1-c1ccccc1[C@H](C)n1cncc1C(=O)N1CCC2NCCO[C@@H]2C1 (stereo partly shown)" value_reported="0.0055 µM"
compound=CC(=O)Nc1cc2n(n1)CCN2c1ccc2c(c1)CCC(=O)N2C value_reported="> 20 µM"
compound=C[C@@H](c1ccccc1-c1ccc(F)cc1)n1cncc1C(=O)N1CCn2c(nnc2C2CC2)C1 value_reported="0.0061 µM"

INPUT: Find IC50 (Cytochrome P450 3A4 (Homo sapiens)) for the entry C[C@@H](c1ccccc1-c1ccc(F)cc1)n1cncc1C(=O)N1CCC(N2CCn3c(nnc3C(F)(F)F)C2)CC1
OUTPUT: 0.0064 µM

INPUT: What IC50 appears in the records for this compound with Cytochrome P450 3A4 (Homo sapiens)? COc1cnc(C(=O)Nc2ccc(F)c([C@@]3(C)N=C(N)O[C@H](C(F)F)[C@@H]3C)c2)cn1
OUTPUT: ≥ 20 µM

INPUT: Recorded IC50 for CC(=O)N1CC(C)(C)c2ccc(NC(=O)c3cccnc3NCc3c[nH]c4ncccc34)cc21 with Cytochrome P450 3A4 (Homo sapiens), please?
OUTPUT: > 20 µM

INPUT: Which measured IC50 belongs to C[C@H]1SC(N)=N[C@](C)(c2nc(NC(=O)c3cnc(OCF)cn3)ccc2F)[C@H]1F , tested on Cytochrome P450 3A4 (Homo sapiens)?
OUTPUT: ≥ 20 µM
